Test system: Human immunodeficiency virus type 1 reverse transcriptase (Human immunodeficiency virus 1), Q72547 [L100I]
Quantity kind: ID50 (nM)

compound="CCCN(C)c1nc(C(OC)c2c(F)cccc2F)c(C)c(=O)[nH]1 (stereo not drawn)" quantity_kind=ID50 unit_of_measurement=nM numeric_result=1400
compound=CCCN(C)c1nc([C@H](OC)c2c(Cl)cccc2Cl)c(C)c(=O)[nH]1 quantity_kind=ID50 unit_of_measurement=nM numeric_result=150
compound="CCCNc1nc(C(OC)c2c(Cl)cccc2Cl)c(C)c(=O)[nH]1 (stereo not drawn)" quantity_kind=ID50 unit_of_measurement=nM numeric_result=2200
compound="CCCN(C)c1nc(C(OC)c2c(F)cccc2Cl)c(C)c(=O)[nH]1 (stereo not drawn)" quantity_kind=ID50 unit_of_measurement=nM numeric_result=950
compound="COC(c1nc(SC2CCCC2)[nH]c(=O)c1C)c1c(F)cccc1Cl (stereo not drawn)" quantity_kind=ID50 unit_of_measurement=nM numeric_result=2300
compound="Cc1c(O)nc(SC(C)C)nc1C(C)c1c(F)cccc1F (stereo not drawn)" quantity_kind=ID50 unit_of_measurement=nM numeric_result=280
compound="CCC(C)Sc1nc(C(OC)c2c(F)cccc2F)c(C)c(=O)[nH]1 (stereo not drawn)" quantity_kind=ID50 unit_of_measurement=nM numeric_result=280

====

Listed below: Ratio values for each entry.
Tested on: Human immunodeficiency virus 1
Test description: Resistance index, ratio of ID50 for recombinant HIV-1 His-tagged reverse transcriptase p66/p51 L100I mutant to ID50 for recombinant wild type HIV-1 reverse transcriptase His-tagged p66/p51
Quantity kind: Ratio

molecule=Cc1c([C@H](C)c2c(F)cccc2F)nc(SC2CCCC2)[nH]c1=O quantity_kind=Ratio numeric_result=18
molecule=CO[C@H](c1nc(SC(C)C)[nH]c(=O)c1C)c1c(F)cccc1Cl quantity_kind=Ratio numeric_result=160
molecule="COC(c1nc(NC(C)C)[nH]c(=O)c1C)c1c(F)cccc1Cl (centres undefined)" quantity_kind=Ratio numeric_result=17
molecule="CCCNc1nc(C(OC)c2c(F)cccc2F)c(C)c(=O)[nH]1 (centres undefined)" quantity_kind=Ratio numeric_result=24
molecule="Cc1c(C(C)c2c(F)cccc2F)nc(NC2CCCC2)[nH]c1=O (centres undefined)" quantity_kind=Ratio numeric_result=17
molecule=CCCN(C)c1nc([C@@H](OC)c2c(Cl)cccc2Cl)c(C)c(=O)[nH]1 quantity_kind=Ratio numeric_result=24
molecule="CCC(C)Sc1nc(C(OC)c2c(Cl)cccc2Cl)c(C)c(=O)[nH]1 (centres undefined)" quantity_kind=Ratio numeric_result=347
molecule=Cc1c([C@@H](C)c2c(F)cccc2F)nc(SC2CCCC2)[nH]c1=O quantity_kind=Ratio numeric_result=17

====

Test system: Human immunodeficiency virus 1
Test description: Resistance index, ratio of ID50 for recombinant HIV-1 His-tagged reverse transcriptase p66/p51 Y181I mutant to ID50 for recombinant wild type HIV-1 reverse transcriptase His-tagged p66/p51
Quantity kind: Ratio

compound="CCC(C)Sc1nc(C(OC)c2c(F)cccc2Cl)c(C)c(=O)[nH]1 (stereo unspecified)" quantity_kind=Ratio numeric_result=711
compound="COC(c1nc(NC(C)C)[nH]c(=O)c1C)c1c(F)cccc1Cl (stereo unspecified)" quantity_kind=Ratio numeric_result=29
compound="CCCNc1nc(C(OC)c2c(F)cccc2Cl)c(C)c(=O)[nH]1 (stereo unspecified)" quantity_kind=Ratio numeric_result=43
compound="COC(c1nc(NC2CCCC2)[nH]c(=O)c1C)c1c(Cl)cccc1Cl (stereo unspecified)" quantity_kind=Ratio numeric_result=43
compound="CCCNc1nc(C(OC)c2c(Cl)cccc2Cl)c(C)c(=O)[nH]1 (stereo unspecified)" quantity_kind=Ratio numeric_result=31
